Measured values drawn from patent US5700833A for this set.

# Tested on: prostacyclin receptor (CNS) in the thalamus ([^3 H] isocarbacyclin receptor)
# experiment.notes: Displacement test relative to tritium-labelled isocarbacyclin, thalamus (CNS), autoradiography of frozen brain sections
# Assay type: binding, rat
# test.context: thalamus (CNS); un-labelled compound 10^-8 M; 10 nM [^3 H]isocarbacyclin; 4° C., 2 h, pH 7.4
Below, each of the molecules is paired with its reported Binding ratio to [^3 H] isocarbacyclin receptor value.
Field format: number, assumed %, no unit text.

The cases that follow already have their Binding ratio to [^3 H] isocarbacyclin receptor on record.
Cc1cccc(C[C@H](O)/C=C/[C@@H]2[C@H]3CC(CCCCC(=O)O)=C[C@H]3C[C@H]2O)c1 [Compound B]    93.9
Cc1cccc(CCC[C@H](O)/C=C/[C@@H]2[C@H]3CC(CCCCC(=O)O)=C[C@H]3C[C@H]2O)c1 [Compound D]    99.8
CCCCC[C@H](O)/C=C/[C@@H]1[C@H]2CC(CCCCC(=O)O)=C[C@H]2C[C@H]1O [Isocarbacyclin, 9(O)-methano-Δ^6(9α) prostaglandin I1]    94.5
Cc1cccc(CCC[C@@H](O)/C=C/[C@@H]2[C@H]3CC(CCCCC(=O)O)=C[C@H]3C[C@H]2O)c1 [Compound C]    96.1

Alright, here's another molecule for you.
Requested field: Binding ratio to [^3 H] isocarbacyclin receptor. Item: Cc1cccc(C[C@@H](O)/C=C/[C@@H]2[C@H]3CC(CCCCC(=O)O)=C[C@H]3C[C@H]2O)c1 [Compound A]
89.2
